Target: Tau (Homo sapiens)
Construct: BiFC fluorescent-protein fragments (two complementary halves on two tau copies); expressed in transfected cells
Sequence (P10636 1-441 isoform P10636-8): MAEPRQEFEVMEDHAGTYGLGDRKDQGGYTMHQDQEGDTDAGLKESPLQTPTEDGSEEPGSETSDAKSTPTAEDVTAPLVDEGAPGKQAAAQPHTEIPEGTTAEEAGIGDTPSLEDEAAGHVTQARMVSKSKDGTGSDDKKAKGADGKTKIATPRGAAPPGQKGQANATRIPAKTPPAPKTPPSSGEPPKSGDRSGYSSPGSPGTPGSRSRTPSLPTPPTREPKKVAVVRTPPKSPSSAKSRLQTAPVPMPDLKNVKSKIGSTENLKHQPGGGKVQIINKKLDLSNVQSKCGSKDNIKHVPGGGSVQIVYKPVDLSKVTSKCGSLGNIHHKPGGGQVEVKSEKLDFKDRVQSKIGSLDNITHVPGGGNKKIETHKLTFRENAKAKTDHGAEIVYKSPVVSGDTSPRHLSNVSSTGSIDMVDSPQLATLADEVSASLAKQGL
Assay: Tau aggregation inhibition in Tau-BiFC cell model (Forskolin-induced)
Type: cell-based
Threshold check on IC50: strictly below 30 nM is Fulfilled; on or above 30 nM is Not fulfilled.

CC1CN(c2nc3ccc(NN=C(C#N)C#N)cc3s2)CC(C)O1 (stereo not drawn) [Compound 10] = Fulfilled

Bench note: check whether CN1CCN(c2nc3ccc(NN=C(C#N)C#N)cc3s2)CC1 [Compound 8] shows IC50 below 30 nM
Not fulfilled

# strict comparison: is reported IC50 < 30 nM? input = CN1CCN(c2nc3ccc(NN=C(C#N)C#N)cc3o2)CC1 [Compound 14]
Not fulfilled

Does the reported IC50 of the following compound sit strictly below 30 nM? N#CC(C#N)=NNc1ccc2nc(N3CCC[C@H](F)C3)oc2c1 [Compound 42]
Fulfilled

Below 30 nM on IC50? Entry CC1CN(c2nc3ccc(NN=C(C#N)C#N)cc3s2)CCO1 (stereo not drawn) [Compound 12]
Not fulfilled

Consider CCn1c(N2CCOCC2)nc2ccc(NN=C(C#N)C#N)cc21 [Compound 32] . Does its IC50 lie strictly below 30 nM?
Fulfilled

###

Target: CYP2C9 (Homo sapiens)
Construct: human liver microsomes (0.25 mg/mL); from tissue; host or cells: human liver microsomes
Sequence (P11712 whole entry): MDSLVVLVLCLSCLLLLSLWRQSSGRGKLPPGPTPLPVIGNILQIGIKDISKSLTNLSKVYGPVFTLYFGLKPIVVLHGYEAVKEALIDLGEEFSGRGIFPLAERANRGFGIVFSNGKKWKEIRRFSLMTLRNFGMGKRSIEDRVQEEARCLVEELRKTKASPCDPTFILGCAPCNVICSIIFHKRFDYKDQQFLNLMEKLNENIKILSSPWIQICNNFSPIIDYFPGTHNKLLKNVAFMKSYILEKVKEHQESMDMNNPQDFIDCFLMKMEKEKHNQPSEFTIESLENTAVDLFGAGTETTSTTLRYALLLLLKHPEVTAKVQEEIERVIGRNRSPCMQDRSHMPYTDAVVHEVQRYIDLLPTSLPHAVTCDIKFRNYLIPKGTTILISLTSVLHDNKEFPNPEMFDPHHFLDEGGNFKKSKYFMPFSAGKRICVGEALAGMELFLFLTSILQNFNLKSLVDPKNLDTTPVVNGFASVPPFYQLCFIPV
Test: CYP isoenzyme activity inhibition in human liver microsomes, CYP2C9
Type: in vitro ADME
Details: 10 µM compound; human liver microsomes 0.25 mg/mL; relative to control without compound
measured_quantity: CYP2C9 (% activity)

Would you mind giving CYP2C9 (% activity) for every compound in the list below?
1. CN1CCN(c2nc3ccc(NN=C(C#N)C#N)cc3s2)CC1
2. Cn1c(N2CCOCC2)nc2cc(NN=C(C#N)C#N)ccc21
3. N#CC(C#N)=NNc1ccc2sc(N3CCOCC3)nc2c1
4. N#CC(C#N)=NNc1ccc2nc(N3CC4CCC(C3)O4)oc2c1
5. CN1CCN(c2nc3ccc(NN=C(C#N)C#N)cc3o2)CC1

1: > 100 % activity; 2: > 100 % activity; 3: 82.5 % activity; 4: 53.3 % activity; 5: 88 % activity

Report CYP2C9 (% activity) for every entry below.
1. N#CC(C#N)=NNc1ccc2nc(N3CCOCC3)sc2c1
2. N#CC(C#N)=NNc1ccc2nc(NC(=O)N3CC4CCC(C3)O4)sc2c1
3. N#CC(C#N)=NNc1ccc2oc(N3CCOCC3)nc2c1
4. N#CC(C#N)=NNc1ccc2nc(N3CCNCC3)sc2c1
5. CCn1c(N2CCOCC2)nc2cc(NN=C(C#N)C#N)ccc21
6. N#CC(C#N)=NNc1ccc2nc(N3CCOCC3)oc2c1

95.1 % activity
46.9 % activity
> 100 % activity
72.0 % activity
28.8 % activity
93.2 % activity

###

Target: CYP2C19 (Homo sapiens)
Construct: human liver microsomes (0.25 mg/mL); from tissue; host or cells: human liver microsomes
Sequence (P33261 whole entry): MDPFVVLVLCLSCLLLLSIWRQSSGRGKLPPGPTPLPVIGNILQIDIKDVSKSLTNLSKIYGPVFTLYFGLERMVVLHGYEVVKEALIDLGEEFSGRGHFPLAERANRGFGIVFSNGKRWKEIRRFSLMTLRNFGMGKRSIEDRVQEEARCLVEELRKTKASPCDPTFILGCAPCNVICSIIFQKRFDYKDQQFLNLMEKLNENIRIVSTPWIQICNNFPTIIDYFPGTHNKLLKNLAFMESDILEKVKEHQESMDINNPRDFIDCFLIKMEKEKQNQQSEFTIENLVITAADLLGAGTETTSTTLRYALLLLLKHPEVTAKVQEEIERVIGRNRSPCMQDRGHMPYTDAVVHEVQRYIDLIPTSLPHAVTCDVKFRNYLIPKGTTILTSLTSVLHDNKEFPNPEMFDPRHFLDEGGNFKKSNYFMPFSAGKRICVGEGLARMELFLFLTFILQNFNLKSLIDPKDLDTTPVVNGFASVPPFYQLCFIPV
Test: CYP isoenzyme activity inhibition in human liver microsomes, CYP2C19
Assay type: in vitro ADME
Conditions: 10 µM compound; human liver microsomes 0.25 mg/mL; relative to control without compound
Exercise: state measured CYP2C19 (% activity) for each of the molecules provided.
State the value with its unit after it.

Below: 6 molecules and their reported CYP2C19 (% activity).
CCn1c(N2CCOCC2)nc2cc(NN=C(C#N)C#N)ccc21 [Compound 33] = 78.6 % activity
N#CC(C#N)=NNc1ccc2nc(N3CC4CCC(C3)O4)oc2c1 [Compound 26] = 82.1 % activity
Cn1c(N2C3CCC2COC3)nc2ccc(NN=C(C#N)C#N)cc21 [Compound 34] = 80.6 % activity
N#CC(C#N)=NNc1ccc2nc(N3C4CCC3COC4)sc2c1 [Compound 11] = 80.3 % activity
Cc1ccc(-c2nc3ccc(NN=C(C#N)C#N)cc3s2)cn1 [Comparative compound 6, reference compound] = 81.2 % activity
Cn1c(N2C3CCC2COC3)nc2cc(NN=C(C#N)C#N)ccc21 [Compound 35] = 82 % activity

Batch lookup, CYP2C19 (% activity) per entry.
1. N#CC(C#N)=NNc1ccc2nc(NC(=O)N3CCOCC3)sc2c1 [Compound 38]
2. CC1CN(C(=O)Nc2nc3ccc(NN=C(C#N)C#N)cc3s2)CC(C)O1 (centres unmarked) [Compound 39]

1: 80 % activity; 2: 78.6 % activity
